Measured fold induction at 10 µM accompanies every entry in the list below.
- Tested on: differentiated 3T3-L1 mouse adipocyte cells
- protocol.summary: Adipocyte glucose consumption in differentiated 3T3-L1 mouse adipocyte cells (loss of glucose from medium, colorimetric)
- Type: cell-based
- reported.conditions: compound 10 μM, 22 to 24 hours, differentiated 3T3-L1 adipocytes, compound/DMSO, read-out: Glucose consumption (fold change) Mean
Reply: number alone, nothing else.

Here's what some known entries look like.
1) CCCCC1Cc2c(n(Cc3cccc(C#N)c3)c3c(C(=O)O)cccc23)C1 (stereo not shown)    1.28
2) CCCCCCC1CCCc2c(n(Cc3cccc(C)c3)c3c(C(=O)O)cccc23)C1 (stereo not shown)    1.13
3) CCCCCCC1CCCc2c(n(Cc3ccc(C#N)o3)c3c(C(=O)O)cccc23)C1 (stereo not shown)    1.29
4) CCCCC1CCCc2c(n(Cc3cccc(O)c3)c3c(C(=O)O)cccc23)C1 (stereo not shown)    1.14
5) CCCCCCC1CCc2c(n(Cc3cccnc3)c3c(C(=O)O)cccc23)C1 (stereo not shown)    1.21
6) CCCCC1CCCCc2c1c1cccc(C(=O)O)c1n2Cc1cccc(C(N)=O)c1 (stereo not shown)    1.14
7) CCCCC1CCCc2c1n(Cc1cccc(C(N)=O)c1)c1c(C(=O)O)cccc21 (stereo not shown)    1.02
8) CCC1CCCCc2c1c1cccc(C(=O)O)c1n2Cc1cccc(C#N)c1 (stereo not shown)    1.15

## Task Looking for the measured fold induction at 10 µM of CCCCCCC1CCc2c(n(Cc3cccc(C(=O)O)c3)c3c(C(=O)O)cccc23)C1 (stereo not shown) , can you help?
## Result 1.01

## Task Data request, read-out fold induction at 10 µM, for CCCCCCCCC1CCCc2c(n(Cc3cccc(C#N)c3)c3c(C(=O)O)cccc23)C1 (stereo not shown)
## Result 1.12

* * *

- Test system: differentiated 3T3-L1 mouse adipocyte cells
- protocol.summary: Adipocyte glucose consumption in differentiated 3T3-L1 mouse adipocyte cells (loss of glucose from medium, colorimetric)
- Format: cell-based
- reported.conditions: compound 10 μM, 22 to 24 hours, differentiated 3T3-L1 adipocytes, compound/DMSO, read-out: Glucose consumption (fold change) Mean
quantity: fold induction at 10 µM
I only need the number, thanks.

# example entries with known answers
1) CCCCCCC1CCCc2c(n(Cc3ccc(F)cc3)c3c(C(=O)O)cccc23)C1 (stereo not drawn)    1.17
2) CCCCCC1CCCc2c(n(Cc3cccc(C#N)c3)c3c(C(=O)O)cccc23)C1 (stereo not drawn)    1.35
3) CCCCCCC1CCc2c(n(Cc3ccccc3F)c3c(C(=O)O)cccc23)C1 (stereo not drawn)    1.24

## Task What fold induction at 10 µM value was documented for this molecule, CCCCC1CCc2c1n(Cc1cccc(C(N)=O)c1)c1c(C(=O)O)cccc21 (stereo not drawn) ?
## Result 1.15

## Task Bench note: what fold induction at 10 µM did CCCCC1CCCc2c(n(Cc3cccc(C(=O)O)c3)c3c(C(=O)O)cccc23)C1 (stereo not drawn) show?
## Result 0.95

* * *

fold induction at 10 µM values by entry
- System: differentiated 3T3-L1 mouse adipocyte cells
- protocol.summary: Adipocyte glucose consumption in differentiated 3T3-L1 mouse adipocyte cells (loss of glucose from medium, colorimetric)
- Format: cell-based
- reported.conditions: compound 10 μM, 22 to 24 hours, differentiated 3T3-L1 adipocytes, compound/DMSO, read-out: Glucose consumption (fold change) Mean

Example compounds with recorded fold induction at 10 µM:
1) CCCCCCC1CCc2c(n(Cc3cccc(O)c3)c3c(C(=O)O)cccc23)C1 (stereo not drawn)    1.11
2) CCCCCOC1CCCc2c1n(Cc1cccc(C#N)c1)c1c(C(=O)O)cccc21 (stereo not drawn)    1.19
3) CCCCCCC1CCCc2c(n(Cc3ccc(C#N)cc3)c3c(C(=O)O)cccc23)C1 (stereo not drawn)    0.94

## Task Entry under review: CCC1CCCc2c1c1cccc(C(=O)O)c1n2Cc1cccc(C(N)=O)c1 (stereo not drawn) . Reported fold induction at 10 µM?
## Result 1.21

## Task Item under review: CCCCCCC1CCCc2c(n(Cc3cccc(C(N)=O)n3)c3c(C(=O)O)cccc23)C1 (stereo not drawn) . Reported fold induction at 10 µM?
## Result 1.23

## Task Returns the measured fold induction at 10 µM for the input compound. Input: CCCCCCC1CCCc2c(n(Cc3cccc(F)n3)c3c(C(=O)O)cccc23)C1 (stereo not drawn)
## Result 1.25

## Task Query (compound): CCCCCCC1CCCc2c(n(Cc3c(C)noc3C)c3c(C(=O)O)cccc23)C1 (stereo not drawn) ; field requested: fold induction at 10 µM
## Result 0.95

## Task Give its fold induction at 10 µM value. Item: CCCCCC1Cc2c(n(Cc3cccc(C(N)=O)c3)c3c(C(=O)O)cccc23)C1 (stereo not drawn)
## Result 0.68

## Task Record request: fold induction at 10 µM value, item CCCCC1CCCc2c(n(Cc3cccnc3)c3c(C(=O)O)cccc23)C1 (stereo not drawn)
## Result 1.21
